# test-protocol: NCI Yeast Anticancer Drug Screen. Data for the rad50 strain (AID 155);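 also: 0% = growth of vehicle-only cultures of the same strain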
# particulars: S. cerevisiae rad50 strain growth inhibition; at 50.0 µM; active compounds read high
Compounds without any hit were thinned out: in the full panel of roughly 79,000, 15% have a hit.
readout-name: growth inhibition (%)
Number only, in %; omit the unit.

compound: O=C(O)CC(O)c1ccccc1 (stereo unspecified)
value-unit: %
growth inhibition: 30.8

Ask: Need growth inhibition, item CC(C)=CCCC(C)C1CCC2C3CC=C4CC(O)CCC4(C)C3CCC12C (stereo unspecified)
Reply: 34.5

Ask: Need growth inhibition, item O=S(=O)(N/N=C/c1ccc(/C=N/NS(=O)(=O)c2ccccc2)cc1)c1ccccc1
Reply: -6.9

Ask: Need growth inhibition, item CCC(=O)Oc1ccc(C(=O)O)cc1
Reply: 6.2

Ask: Need growth inhibition, item Clc1ccc(C2=NCCO2)cc1
Reply: -23.8

Ask: Need growth inhibition, item CCCCCCCCCCCCCCCCN(O)C(=O)c1cnc[nH]1
Reply: 29.8

* * *

# test-protocol: NCI Yeast Anticancer Drug Screen. Data for the mlh1 rad18 strain (AID 175)
# particulars: S. cerevisiae mlh1 rad18 strain growth inhibition; at 50.0 µM
Compounds without any hit were thinned out: in the full panel of roughly 79,000, 15% have a hit. The source made the active and inactive calls. Rule as the data show it: active = growth inhibition above about 70%; inactive = the rest.
Respond with a class label; see 1.0 for active, 0.0 for inactive

Completed entries (count: 3):
compound: NC(=O)O/N=C/c1ccccn1
label-value: 0.0

compound: C/C(=N/NC(N)=O)C1=CCCCC1
label-value: 0.0

compound: CC1=C(C(=O)CC(=O)C(=O)Nc2ccc(Cl)cc2Cl)Sc2ccccc2N1
label-value: 0.0

Ask: I would be grateful if you could indicate the recorded call for O=[N+]([O-])c1ccc(-c2csc3nc(-c4ccccc4)nn23)cc1 .
Reply: 0.0

Ask: I would be grateful if you could indicate the recorded call for CCCCCCN(CCCCCC)CC(O)c1c(Cl)ccc2ccccc12 (stereo not given) .
Reply: 1.0

Ask: I would be grateful if you could indicate the recorded call for CCc1ccc(C(=O)CN2CCCc3ccccc32)cc1 .
Reply: 0.0

Ask: I would be grateful if you could indicate the recorded call for OC/C=C(\I)CCCOCOCc1ccccc1 .
Reply: 0.0

Ask: I would be grateful if you could indicate the recorded call for CC1(C)C2CCC(=O)C1C(OCc1ccccc1)C2 (stereo not given) .
Reply: 0.0

Ask: I would be grateful if you could indicate the recorded call for CN(c1ccc(Cl)cc1)S(=O)(=O)c1ccc([N+](=O)[O-])cc1 .
Reply: 0.0

Ask: I would be grateful if you could indicate the recorded call for CC1c2c(cc(=O)n(C)c2O)C(=O)N1C (stereo not given) .
Reply: 0.0

Ask: I would be grateful if you could indicate the recorded call for Cc1cc(C23OC4COC(C)(C)OC4C2OC(C)(C)O3)nc2ccccc12 (stereo not given) .
Reply: 0.0

Ask: I would be grateful if you could indicate the recorded call for CC1(C)C(=O)C(C)(C)C1=NN .
Reply: 0.0

Ask: I would be grateful if you could indicate the recorded call for CC(C)(C)c1ccc2c(c1)C(O)(C#Cc1ccccc1)c1ccccc1C2(O)C#Cc1ccccc1 (stereo not given) .
Reply: 0.0

Ask: I would be grateful if you could indicate the recorded call for Cc1cc(C(c2ccccc2)c2cc(C)cc(C(C)(C)CC(C)(C)C)c2O)c(O)c(C(C)(C)CC(C)(C)C)c1 .
Reply: 0.0

Ask: I would be grateful if you could indicate the recorded call for O=c1c2ccccc2nnn1OCc1ccccc1 .
Reply: 0.0

Ask: I would be grateful if you could indicate the recorded call for CC(=O)OC1COC(N2C(=O)C(=O)c3ccccc32)C(OC(C)=O)C1OC(C)=O (stereo not given) .
Reply: 0.0

* * *

# test-protocol: NCI Yeast Anticancer Drug Screen. Data for the cln2 rad14 strain (AID 165);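 also: 0% = growth equal to vehicle treated cultures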
# particulars: S. cerevisiae cln2 rad14 strain, at 50.0 µM, active compounds read high
# Procedure: Growth inhibition of yeast strains with defined genetic alterations is measured as a screen for potential anti-cancer activity. Selected strains with alterations in DNA damage repair or cell cycle control were exposed to compounds and growth inhibition was measured relative to vehicle treated controls. The strain used in this assay is cln2 rad14
This is part of a sample that, as a whole, favours compounds with a hit. Of some 79,000 tested, about 15% had one in any assay.
readout-name: growth inhibition (%)
Number only, in %; omit the unit.

Some entries whose results are on file:
compound: Cc1ccc(CO)cc1
value-unit: %
growth inhibition: -5.6
--
compound: NCC1CCC(C(=O)O)CC1 (configuration not stated)
value-unit: %
growth inhibition: -20.9
--
compound: Cc1ccccc1N=Nc1c(-c2ccccc2)nn(C(=O)CC(=O)Nc2cccc(Cl)c2)c1-c1ccccc1
value-unit: %
growth inhibition: 34.3
--
compound: c1cc2c3c(c1)ccc1cccc(c13)CC2
value-unit: %
growth inhibition: 1.5
--
compound: NC(=O)C1CCCN1C(=O)C(Cc1cnc[nH]1)NC(=O)C1CCCC1 (configuration not stated)
value-unit: %
growth inhibition: 8.1
--
compound: CCCCS(=O)(=O)C[N+](C)(CC)CC
value-unit: %
growth inhibition: -6.85

Ask: Need growth inhibition, item C=C1C(=O)OC2C1C(OC(=O)/C(C)=C/C)CC1(C)C(=O)CCC(=C)C21 (configuration not stated)
Reply: 44.1

* * *

This listing pairs compounds with measured growth inhibition.
# test-protocol: NCI Yeast Anticancer Drug Screen. Data for the mec2-1 strain (AID 157)
# particulars: S. cerevisiae mec2-1 strain, at 50.0 µM, active compounds read high
# Experimental: Growth inhibition of yeast strains with defined genetic alterations is measured as a screen for potential anti-cancer activity. Selected strains with alterations in DNA damage repair or cell cycle control were exposed to compounds and growth inhibition was measured relative to vehicle treated controls. The strain used in this assay is mec2-1
This is part of a sample that, as a whole, favours compounds with a hit. Of some 79,000 tested, about 15% had one in any assay.
Number only, in %; omit the unit.

Some entries whose results are on file:
compound: c1ccc2cc(CCc3cc4ccccc4cn3)ncc2c1
growth inhibition / %: 11.4

compound: Cc1ccc2nc(CN(CCO)CCO)cc(=O)n2c1
growth inhibition / %: 4.95

compound: COC1C(O)CC(OC2C(C)OC(Oc3cc(O)c4c(O)c5c(cc4c3)C[C@@H]([C@H](OC)C(=O)[C@@H](O)[C@@H](C)O)[C@H](OC3CC(OC4CC(OC6CC(C)(O)C(O)C(C)O6)C(O)C(C)O4)C(O)C(C)O3)C5=O)CC2OC(C)=O)OC1C (stereo not given in full)
growth inhibition / %: -3.45

Ask: Need growth inhibition, item COC(=O)C1(C)C=CC(=O)C2(C)C1C(O)C1OC3CC(c4ccoc4)C(C)=C3C1(C)C2CC(=O)O (stereo not given)
Reply: -7

Ask: Need growth inhibition, item O=C1c2c(O)cccc2C(C(=O)CCCC(=O)C2c3cccc(O)c3C(=O)c3c(O)cccc32)c2cccc(O)c21
Reply: 13.2

* * *

# test-protocol: NCI Yeast Anticancer Drug Screen. Data for the mec2-1 strain (AID 157)
# particulars: S. cerevisiae mec2-1 strain, at 50.0 µM, active compounds read high
About 79,000 compounds went through this panel and 15% of them were active in at least one assay; those are over-represented in the sample as a whole.
This listing pairs molecules with measured growth inhibition.
Number only, in %; omit the unit.

Ask: Need growth inhibition, item COC(=O)CC#N
Reply: 4.9

* * *

This listing pairs compounds with measured growth inhibition.
# test-protocol: NCI Yeast Anticancer Drug Screen. Data for the sgs1 mgt1 strain (AID 161);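 also: 0% = growth of cultures given vehicle only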
# particulars: S. cerevisiae sgs1 mgt1 strain, at 50.0 µM, active compounds read high
# Procedure: Growth inhibition of yeast strains with defined genetic alterations is measured as a screen for potential anti-cancer activity. Selected strains with alterations in DNA damage repair or cell cycle control were exposed to compounds and growth inhibition was measured relative to vehicle treated controls. The strain used in this assay is sgs1 mgt1
This is part of a sample that, as a whole, favours compounds with a hit. Of some 79,000 tested, about 15% had one in any assay.
Number only, in %; omit the unit.

Some entries whose results are on file:
compound: CC(NC(=O)c1ccccc1)C(=O)O (centres undefined)
growth inhibition, %: -26.6
--
compound: CC(c1ccc([N+](=O)[O-])cc1)n1cnc2c(N(CCO)CCO)ncnc21 (centres undefined)
growth inhibition, %: -13.7
--
compound: c1ccc(-c2cc(CNc3nc4ccccc4s3)on2)cc1
growth inhibition, %: 9.1

Ask: Need growth inhibition, item O=C(CCCO)c1nc2ccccc2s1
Reply: 2.8

Ask: Need growth inhibition, item O=C(O)c1ccc(Cl)cc1C(=O)c1ccc(Cl)cc1
Reply: -2.55

Ask: Need growth inhibition, item C/C(CC(N)=O)=C1\C(=O)NN(c2ccccc2)C1=O
Reply: 48.2

Ask: Need growth inhibition, item OC(c1ccccc1)c1c(-c2ccccc2)[nH]c(-c2ccccc2)c1C(O)c1ccccc1 (centres undefined)
Reply: -6.5

Ask: Need growth inhibition, item Cc1nc2c(SCc3ccccc3)ncnc2o1
Reply: 14.9

Ask: Need growth inhibition, item COc1cc(CCCCC(=O)O)ccc1OC(=O)c1ccccc1
Reply: 1.85

Ask: Need growth inhibition, item O=C(CCC(=O)Nc1ccccc1[N+](=O)[O-])CC(=O)c1ccc(Br)cc1
Reply: -2.95

Ask: Need growth inhibition, item NNC(=O)c1n[nH]n(N)c1=S
Reply: 10.9

Ask: Need growth inhibition, item CCCCCCCCCCCCCCCCCCOC(=O)C1CCCN1 (centres undefined)
Reply: 12.8

Ask: Need growth inhibition, item CC1=CC(O/C=C2\C(=O)OC3C=CCC23)OC1=O (centres undefined)
Reply: 17.4

Ask: Need growth inhibition, item CCOC(=O)C(C(C)=O)C(c1ccc(OCc2ccccc2)c(C)c1)C(C(C)=O)C(=O)OCC (centres undefined)
Reply: 25.9

Ask: Need growth inhibition, item Cc1ccc(S(=O)(=O)OC(c2ccccc2)C(F)(F)F)cc1 (centres undefined)
Reply: -7.2

Ask: Need growth inhibition, item CCOC(=O)C1=C(Nc2ccccc2)OC/C1=N\NC(=O)Cc1ccccc1
Reply: -1.6

Ask: Need growth inhibition, item O=C(CN1C(=O)NC(c2ccccc2)(c2ccccc2)C1=O)NCCN1CCOCC1
Reply: -5.95

Ask: Need growth inhibition, item CCCCCCCCCCCCOc1ccc(Sc2ccc(OCCCCCCCCCCCC)cc2C)c(C)c1
Reply: -0.95

Ask: Need growth inhibition, item C[Si](C)(C)c1ccc(C(=O)O)cc1
Reply: -3.35
